# test summary: in vitro
# settings: human, Caco-2, pH 7.4
Papp B→A at 90 min, 10 μM listing for selected molecules.

Some molecules with recorded Papp B→A at 90 min, 10 μM:
[[record]]
molecule = "Cc1cccnc1[C@@H]1CCC[C@H](c2cn3c(N4CCC(N(C)C)CC4)cccc3n2)N1C"
quantity_kind = "Papp B→A at 90 min, 10 μM"
reported_value = "10 to 30 ×10⁻⁶ cm/s"

[[record]]
molecule = "CC(C)N1CCN(c2cccc3nc([C@H]4CCC[C@@H](c5ncccc5Cl)N4C)c(Cl)n23)CC1"
quantity_kind = "Papp B→A at 90 min, 10 μM"
reported_value = "0.1 to 10 ×10⁻⁶ cm/s"

[[record]]
molecule = "Cc1cccnc1[C@@H]1CCC[C@H](c2nc3ccccn3c2CN2CCOCC2)N1C"
quantity_kind = "Papp B→A at 90 min, 10 μM"
reported_value = "10 to 30 ×10⁻⁶ cm/s"

[[record]]
molecule = "Cc1cccnc1[C@@H]1CCC[C@H](c2cn3c(N4CCN5CCCC5C4)cccc3n2)N1C (stereo partly drawn)"
quantity_kind = "Papp B→A at 90 min, 10 μM"
reported_value = "> 30 ×10⁻⁶ cm/s"

[[record]]
molecule = "Cc1cccnc1[C@@H]1CCC[C@H](c2nc3c(N)ccc(N4CCN(C)CC4)n3c2Cl)N1C"
quantity_kind = "Papp B→A at 90 min, 10 μM"
reported_value = "10 to 30 ×10⁻⁶ cm/s"

[[record]]
molecule = "Cc1cccnc1[C@@H]1CCC[C@H](c2cn3c(N4CCN(C)C(=O)C4)cccc3n2)N1"
quantity_kind = "Papp B→A at 90 min, 10 μM"
reported_value = "10 to 30 ×10⁻⁶ cm/s"

[[record]]
molecule = "CC(C)c1cccnc1[C@@H]1CCC[C@H](c2nc3cccc(N4CCN(C)CC4)n3c2Cl)N1C"
quantity_kind = "Papp B→A at 90 min, 10 μM"
reported_value = "0.1 to 10 ×10⁻⁶ cm/s"

[[record]]
molecule = "Cc1cccnc1[C@@H]1CCC[C@H](c2nc3cccc(N4C5CCC4CN(C)C5)n3c2Cl)N1C"
quantity_kind = "Papp B→A at 90 min, 10 μM"
reported_value = "10 to 30 ×10⁻⁶ cm/s"


QUERY: Input CN1CCN(c2cccc3nc([C@@H]4CCC[C@H](c5ncccc5Cl)N4)cn23)CC1 (single isomer, unassigned) , output reported Papp B→A at 90 min, 10 μM.
RESULT: 10 to 30 ×10⁻⁶ cm/s

QUERY: Kindly indicate its recorded Papp B→A at 90 min, 10 μM. Item: C/C=C/c1c([C@H]2CCC[C@@H](c3ncccc3C)N2C)nc2cccc(N3CCN(C)CC3)n12
RESULT: 10 to 30 ×10⁻⁶ cm/s

QUERY: Return reported Papp B→A at 90 min, 10 μM. Input molecule: CN1CCN(c2cccc3nc([C@H]4CCC[C@@H](c5ncccc5Cl)N4C)c(CO)n23)CC1
RESULT: 10 to 30 ×10⁻⁶ cm/s

QUERY: Entry COCc1c([C@H]2CCC[C@@H](c3ncccc3C)N2C)nc2cccc(N3CCN(C)CC3)n12 needs its Papp B→A at 90 min, 10 μM filled in; supply it.
RESULT: 10 to 30 ×10⁻⁶ cm/s

QUERY: # return recorded Papp B→A at 90 min, 10 μM for input Cc1cccnc1[C@@H]1CCC[C@H](c2nc3ccccn3c2[C@H](O)C2CCN(C)CC2)N1C
RESULT: 0.1 to 10 ×10⁻⁶ cm/s

QUERY: For Cc1cccnc1[C@@H]1CCC[C@H](c2cn3c(N4CC5CCC(C4)N5)cccc3n2)N1C , write its Papp B→A at 90 min, 10 μM.
RESULT: 10 to 30 ×10⁻⁶ cm/s
